The reported measurements were obtained from patent US7541359B2.

# assayedSystem: Rat FAAH (Rattus norvegicus, UniProt P97612)
# Sequence (P97612 1-579): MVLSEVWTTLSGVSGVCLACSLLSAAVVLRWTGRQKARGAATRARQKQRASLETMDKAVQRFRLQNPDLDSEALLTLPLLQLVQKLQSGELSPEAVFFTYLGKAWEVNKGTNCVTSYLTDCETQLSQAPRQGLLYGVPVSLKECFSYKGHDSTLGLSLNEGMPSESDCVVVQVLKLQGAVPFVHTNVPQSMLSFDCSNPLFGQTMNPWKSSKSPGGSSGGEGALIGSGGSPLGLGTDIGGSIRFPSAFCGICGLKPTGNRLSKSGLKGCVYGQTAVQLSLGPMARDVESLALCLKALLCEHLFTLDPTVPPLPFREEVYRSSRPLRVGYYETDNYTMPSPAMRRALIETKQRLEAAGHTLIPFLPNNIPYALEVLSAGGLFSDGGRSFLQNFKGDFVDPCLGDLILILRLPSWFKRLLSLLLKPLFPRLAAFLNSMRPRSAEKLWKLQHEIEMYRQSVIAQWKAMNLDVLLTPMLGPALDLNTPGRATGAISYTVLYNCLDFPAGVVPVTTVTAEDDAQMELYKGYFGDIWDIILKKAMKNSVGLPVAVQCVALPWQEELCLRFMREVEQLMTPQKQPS
parameter: pIC50
pIC50 here: minus log base 10 of the concentration, concentration in moles per litre.

Fill in the blank: the reported pIC50 of O=C(Nc1nccs1)N1CCN(c2nc(-c3ccccc3)ns2)CC1 [Example 32] is ____. 7.11

Check O=C(Nc1ccccc1)N1CCN(c2nc(-c3ccoc3)ns2)CC1 [Example 41] too. 6.23

Check O=C(Nc1ccccc1)N1CCN(c2nc(-c3ccco3)ns2)CC1 [Example 40] too. 5.70

Check Cc1cccc(-c2nsc(N3CCN(C(=O)Nc4ccccc4)CC3)n2)c1 [Example 38] too. 7.08

Check Cc1ccc(-c2nsc(N3CCN(C(=O)Nc4ccccc4)CC3)n2)cc1 [Example 18] too. 6.60

###

# assayedSystem: FAAH (Homo sapiens)
# Sequence (O00519 1-579): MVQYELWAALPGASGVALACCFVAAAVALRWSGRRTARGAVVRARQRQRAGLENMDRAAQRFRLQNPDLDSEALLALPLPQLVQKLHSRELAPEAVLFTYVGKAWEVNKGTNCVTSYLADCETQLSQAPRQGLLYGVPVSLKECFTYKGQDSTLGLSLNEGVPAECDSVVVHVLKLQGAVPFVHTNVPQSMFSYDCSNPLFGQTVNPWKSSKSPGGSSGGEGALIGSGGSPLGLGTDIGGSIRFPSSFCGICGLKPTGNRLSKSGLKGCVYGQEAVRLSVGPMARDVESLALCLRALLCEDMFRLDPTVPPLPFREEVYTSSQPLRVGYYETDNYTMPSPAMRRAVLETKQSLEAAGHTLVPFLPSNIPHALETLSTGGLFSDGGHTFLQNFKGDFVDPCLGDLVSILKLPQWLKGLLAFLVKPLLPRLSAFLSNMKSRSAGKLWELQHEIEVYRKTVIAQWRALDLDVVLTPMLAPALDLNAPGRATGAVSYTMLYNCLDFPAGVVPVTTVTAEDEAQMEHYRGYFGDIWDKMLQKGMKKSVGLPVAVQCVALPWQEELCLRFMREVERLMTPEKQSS
# measurementDescription: Assay Method 2: FAAH assay, homogenate of SK-N-MC cells transfected with human FAAH
# Assay type: biochemical
# Design: expressed in transfected cells; host or cells: SK-N-MC cells, electroporated, G418-selected clones
# conditionSet: human FAAH transfected SK-N-MC cell homogenate; 3H-AEA tracer 80 nM; rt 1 h
Can you tell me pIC50 for the items I'm about to list?
pIC50 here: minus log base 10 of the concentration, concentration in moles per litre.

Fill in the blank: the reported pIC50 of O=C(Nc1ccccc1)N1CCN(c2nc(-c3cccs3)ns2)CC1 [Example 42] is ____. 7.22

Check O=C(Nc1ccccc1)N1CCN(c2nc(N3CCCCC3)ns2)CC1 [Example 27] too. 6.59
